B1: library; numbered along this chain (parent)
chain: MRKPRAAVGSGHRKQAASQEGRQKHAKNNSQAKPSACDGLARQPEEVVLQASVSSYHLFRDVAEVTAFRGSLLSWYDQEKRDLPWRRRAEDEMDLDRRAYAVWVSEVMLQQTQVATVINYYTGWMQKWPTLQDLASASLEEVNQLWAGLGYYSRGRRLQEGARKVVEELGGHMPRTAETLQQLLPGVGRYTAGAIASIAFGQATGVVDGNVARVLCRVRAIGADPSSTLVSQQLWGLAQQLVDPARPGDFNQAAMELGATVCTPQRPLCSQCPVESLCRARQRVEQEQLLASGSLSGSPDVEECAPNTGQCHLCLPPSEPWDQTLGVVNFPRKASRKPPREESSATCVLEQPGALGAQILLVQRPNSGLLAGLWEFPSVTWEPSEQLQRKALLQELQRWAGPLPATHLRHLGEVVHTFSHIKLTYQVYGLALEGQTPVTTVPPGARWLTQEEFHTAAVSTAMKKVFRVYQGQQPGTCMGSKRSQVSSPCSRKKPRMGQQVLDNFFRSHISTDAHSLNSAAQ

- Variants of: B1
- Experiment: 8OG:A repair function score (normalized; synonymous = 0, nonsense = -1) (normalized log-likelihood score); higher = more repair activity (WT-like);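 note: cells sorted at 72 h after reporter transfection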
- Setup conditions: with 8OG:A DNA repair reporter (GFP) in HEK-293 MUTYH KO cells
Measured quantity: 8OG:A repair function score

# Mutant code, Value reported
rows = [
    ("G170N", 0.0595),
    ("N366A", 0.0425),
    ("S318K", -0.0665),
    ("V206Y", -1.01),
    ("S483I", -0.00113),
    ("R86V", -1.33),
    ("L355C", -0.0489),
    ("S296G", -0.0331),
    ("E303W", -0.175),
    ("C347Q", -1.57),
    ("R98A", -0.175),
    ("A405R", 0.00307),
    ("L139P", 0.0573),
    ("L257G", -1.04),
    ("G201V", -0.331),
    ("R336S", -0.097),
    ("W235C", -0.509),
]

Where do the numbers come from? From the supplement of paper PMC11908140.
